tgt: T1, human CD24 (human, UniProt P25063 27-59, heavily glycosylated, GPI-anchored (as described in the background))
T1 chain (looked up): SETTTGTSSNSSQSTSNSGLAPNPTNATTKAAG
protocolDetails: cell-based or functional assay
Assign Max phagocytosis Index (%), phagocytosis against HT-29 cells to each entry below.
Give bare numbers, in %.

• ch100F2E3-hIgG4 (antibody, V domains shown, chimeric) VH: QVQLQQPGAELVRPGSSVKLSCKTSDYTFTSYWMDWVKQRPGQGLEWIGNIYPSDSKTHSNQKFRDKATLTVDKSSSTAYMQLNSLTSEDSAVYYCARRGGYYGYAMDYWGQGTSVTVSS VL: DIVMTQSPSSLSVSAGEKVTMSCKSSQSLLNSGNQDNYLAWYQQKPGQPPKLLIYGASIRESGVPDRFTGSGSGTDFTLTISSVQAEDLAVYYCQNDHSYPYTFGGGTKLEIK = 71.2

Batch request: Max phagocytosis Index (%), phagocytosis against HT-29 cells per item, same order as input.
1. ch81A1F8-hIgG4 (antibody, V domains shown, chimeric; also called chAb81A1F8; ch81A1F8-IgG4) VH: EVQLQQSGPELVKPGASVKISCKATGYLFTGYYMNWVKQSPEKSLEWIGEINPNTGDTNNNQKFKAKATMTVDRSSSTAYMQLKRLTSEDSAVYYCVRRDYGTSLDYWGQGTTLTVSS VL: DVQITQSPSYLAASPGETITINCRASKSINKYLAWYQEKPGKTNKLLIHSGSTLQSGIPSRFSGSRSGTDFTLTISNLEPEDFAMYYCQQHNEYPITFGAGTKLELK
2. ch56A7E3-hIgG4 (antibody, V domains shown, chimeric) VH: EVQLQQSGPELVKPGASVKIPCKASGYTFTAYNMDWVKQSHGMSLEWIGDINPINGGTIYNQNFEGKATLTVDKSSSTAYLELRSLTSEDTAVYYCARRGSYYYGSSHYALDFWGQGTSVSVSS VL: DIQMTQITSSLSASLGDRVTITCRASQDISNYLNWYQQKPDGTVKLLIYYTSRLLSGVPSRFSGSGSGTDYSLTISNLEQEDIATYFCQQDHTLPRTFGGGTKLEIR
3. SN3 (antibody, V domains shown) VH: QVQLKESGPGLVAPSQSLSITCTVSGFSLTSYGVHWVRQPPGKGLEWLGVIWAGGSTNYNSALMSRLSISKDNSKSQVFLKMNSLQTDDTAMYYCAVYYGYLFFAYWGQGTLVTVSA VL: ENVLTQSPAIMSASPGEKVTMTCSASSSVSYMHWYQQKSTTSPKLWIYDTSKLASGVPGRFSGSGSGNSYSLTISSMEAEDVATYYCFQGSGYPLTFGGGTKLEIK

## Output
76.6
55.2
68.2
